# tested.target: KRAS G12V (Homo sapiens, UniProt P01116+P62937, G12V)
# Sequence (P01116 1-169 isoform P01116-2 G12V limits assumed): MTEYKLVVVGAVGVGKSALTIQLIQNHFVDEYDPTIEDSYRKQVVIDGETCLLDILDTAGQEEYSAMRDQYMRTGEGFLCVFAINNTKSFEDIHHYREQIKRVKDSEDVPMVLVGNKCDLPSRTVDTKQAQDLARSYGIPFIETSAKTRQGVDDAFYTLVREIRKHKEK
# Sequence (P62937 whole entry): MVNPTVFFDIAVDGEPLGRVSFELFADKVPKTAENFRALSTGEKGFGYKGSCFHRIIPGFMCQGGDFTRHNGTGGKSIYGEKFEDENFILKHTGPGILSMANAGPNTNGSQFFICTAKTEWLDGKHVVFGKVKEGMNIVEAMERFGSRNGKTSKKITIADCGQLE
# measurement.protocol: Disruption of BRAF RBD interaction with Ras (FRET / MOA assay, with Cyclophilin A)
# Assay type: biochemical
# reported.conditions: KRAS G12V; read-out: KRAS G12V FRET data IC50
Form field: IC50 (one value per entry).

Record excerpt, results attached:
- compound: "CCn1c(-c2cccnc2[C@H](C)OC)c2c3cc(ccc31)-c1csc(n1)C[C@H](NC(=O)[C@H](C(C)C)N(C)C(=O)N1CC(N(C)S(C)(=O)=O)C1)C(=O)N1CCC[C@H](N1)C(=O)OCC(C)(C)C2 (atropisomer, axis not shown)"
  IC50: "0.1 to 1 µM"
- compound: "CCn1c(-c2cccnc2[C@H](C)OC)c2c3cc(ccc31)N1CCO[C@@H](C[C@H](NC(=O)[C@H](C(C)C)N(C)C(=O)[C@@]3(F)CCN(C(=O)C#CC(C)(C)N4CCC4)C3)C(=O)N3CCC[C@H](N3)C(=O)OCC(C)(C)C2)C1"
  IC50: "1 to 10 µM"
- compound: "CC#C[S+]([O-])N1CC[C@H](C(=O)N(C)[C@H](C(=O)N[C@H]2Cc3cccc(c3)-c3ccc4c(c3)c(c(-c3cccnc3[C@H](C)OC)n4CC)CC(C)(C)COC(=O)[C@@H]3CCCN(N3)C2=O)C2CCCC2)C1 (stereo partly shown)"
  IC50: "1 to 10 µM"

Note: attention shifts to another entry.
// lookup IC50 for CCn1c(-c2cccnc2[C@H](C)OC)c2c3cc(ccc31)-c1csc(n1)C[C@H](NC(=O)[C@H](C(C)C)N(C)C(=O)N1CC[C@@H]1C(=O)NC)C(=O)N1CCC[C@H](N1)C(=O)OCC(C)(C)C2
1 to 10 µM
